Molecular target: Human M4 (Homo sapiens)
Sequence (P08173 1-479): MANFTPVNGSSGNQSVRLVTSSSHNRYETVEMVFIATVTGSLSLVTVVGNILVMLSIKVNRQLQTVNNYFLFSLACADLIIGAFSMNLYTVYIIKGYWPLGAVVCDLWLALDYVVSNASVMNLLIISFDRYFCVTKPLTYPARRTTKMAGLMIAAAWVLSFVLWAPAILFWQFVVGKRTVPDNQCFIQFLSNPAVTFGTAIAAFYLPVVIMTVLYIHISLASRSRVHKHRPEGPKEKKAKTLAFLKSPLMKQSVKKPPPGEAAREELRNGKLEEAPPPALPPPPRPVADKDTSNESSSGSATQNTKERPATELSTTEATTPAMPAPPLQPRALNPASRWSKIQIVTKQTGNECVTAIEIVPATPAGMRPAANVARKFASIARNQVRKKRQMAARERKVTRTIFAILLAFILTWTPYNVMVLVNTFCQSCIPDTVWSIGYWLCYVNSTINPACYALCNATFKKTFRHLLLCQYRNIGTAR
Assay: mAChR M4 cell-based functional assay (calcium flux, antagonism of EC80 acetylcholine response)
Conditions: M4/Gqi5 CHO-K1 cells; decrease of the response elicited by an EC80 concentration of acetylcholine
measured_quantity: log10(IC50) (log10 of the value in nM)

[
  {
    "compound": "CS(=N)(=O)c1cc(F)c(-c2ccc(N[C@H]3C[C@@H]4CN(CC5CCOCC5)C[C@@H]4C3)nn2)cc1F (stereo partly shown) [compound 7]",
    "measured_quantity": "log10(IC50)",
    "result": 1.60
  },
  {
    "compound": "[2H]C([2H])(C1CCOCC1)N1C[C@H]2C[C@H](Nc3ccc(-c4cc(F)c(S(C)(=O)=NC(C)=O)cc4F)nn3)C[C@H]2C1 (stereo partly shown) [compound 4]",
    "measured_quantity": "log10(IC50)",
    "result": 2.77
  },
  {
    "compound": "[2H]C([2H])(C1CCOCC1)N1C[C@H]2C[C@H](Nc3ccc(-c4ccc(S(C)(=O)=NC(F)(F)F)cc4)nn3)C[C@H]2C1 (stereo partly shown) [compound 12]",
    "measured_quantity": "log10(IC50)",
    "result": 1.64
  },
  {
    "compound": "[2H]C([2H])(C1CCOCC1)N1C[C@H]2C[C@H](Nc3ccc(-c4ccc(S(C)(=N)=O)c(F)c4)nn3)C[C@H]2C1 (stereo partly shown) [compound 6]",
    "measured_quantity": "log10(IC50)",
    "result": 2.27
  },
  {
    "compound": "[2H]C([2H])(C1CC(C)(C)OC(C)(C)C1)N1C[C@H]2C[C@H](Nc3ccc(-c4cc(F)c(S(C)(=N)=O)cc4F)nn3)C[C@H]2C1 (stereo partly shown) [compound 11]",
    "measured_quantity": "log10(IC50)",
    "result": 1.94
  },
  {
    "compound": "CS(=N)(=O)c1cc(F)c(-c2ccc(N[C@H]3C[C@@H]4CN(Cc5ccccn5)C[C@@H]4C3)nn2)cc1F (stereo partly shown) [compound 8]",
    "measured_quantity": "log10(IC50)",
    "result": 2.75
  },
  {
    "compound": "[2H]C([2H])(C1CCOCC1)N1C[C@H]2C[C@H](Nc3ccc(-c4ccc(S(C)(=N)=O)cc4)nn3)C[C@H]2C1 (stereo partly shown) [compound 2]",
    "measured_quantity": "log10(IC50)",
    "result": 1.60
  },
  {
    "compound": "CS(=N)(=O)c1cc(F)c(-c2ccc(N[C@H]3C[C@@H]4CN(CC5CCCCC5)C[C@@H]4C3)nn2)cc1F (stereo partly shown) [compound 10]",
    "measured_quantity": "log10(IC50)",
    "result": 0.26
  },
  {
    "compound": "[2H]C([2H])([2H])N=S(C)(=O)c1cc(F)c(-c2ccc(N[C@H]3C[C@@H]4CN(C([2H])([2H])C5CCOCC5)C[C@@H]4C3)nn2)cc1F (stereo partly shown) [compound 3]",
    "measured_quantity": "log10(IC50)",
    "result": 1.27
  },
  {
    "compound": "[2H]C([2H])(C1CCOCC1)N1C[C@H]2C[C@H](Nc3ccc(-c4ccc(S(C)(=N)=O)cc4F)nn3)C[C@H]2C1 (stereo partly shown) [compound 5]",
    "measured_quantity": "log10(IC50)",
    "result": 1.88
  },
  {
    "compound": "CS(=N)(=O)c1cc(F)c(-c2ccc(N[C@H]3C[C@@H]4CN(CCC5CCOCC5)C[C@@H]4C3)nn2)cc1F (stereo partly shown) [compound 9]",
    "measured_quantity": "log10(IC50)",
    "result": 1.26
  },
  {
    "compound": "[2H]C([2H])(C1CCOCC1)N1C[C@H]2C[C@H](Nc3ccc(-c4cc(F)c(S(C)(=N)=O)cc4F)nn3)C[C@H]2C1 (stereo partly shown) [compound 1]",
    "measured_quantity": "log10(IC50)",
    "result": 1.13
  },
  {
    "compound": "[2H]C([2H])(C1CCOCC1)N1C[C@H]2C[C@H](Nc3ccc(-c4ccc(S(C)(=N)=O)c(C(F)(F)F)c4)nn3)C[C@H]2C1 (stereo partly shown) [compound 13]",
    "measured_quantity": "log10(IC50)",
    "result": 0.93
  }
]

* * *

Measured Human M4 Emin, listed per entry.
Molecular target: Human M4 (Homo sapiens, UniProt P08173)
Construct: expressed in transfected cells; host or cells: CHO-K1 (ATCC), stably expressing M4 and Gqi5
Test: mAChR M4 cell-based functional assay (calcium flux, antagonism of EC80 acetylcholine response)
Conditions: % ACh maximum at 30 μM; M4/Gqi5 CHO-K1 cells
Protocol: Human or rat M4 cDNA, along with the chimeric G protein Gqi5, were transfected into Chinese hamster ovary (CHO-K1) cells purchased from the American Type Culture Collection using Lipofectamine2000. […] Calcium flux was measured using the Functional Drug Screening System (FDSS) 6000 or 7000 (Hamamatsu Corporation, Tokyo, Japan) as an increase in the fluorescent static ratio. […] Agonist activity was analyzed as a concentration-dependent increase in calcium mobilization upon compound addition. […]

[
  {
    "compound": "[2H]C([2H])(C1CCOCC1)N1C[C@H]2C[C@H](Nc3ccc(-c4ccc(S(C)(=N)=O)c(F)c4)nn3)C[C@H]2C1 (stereo partly shown)",
    "target": "Human M4 (Homo sapiens, UniProt P08173)",
    "value_units": "%",
    "Human M4 Emin": 3
  },
  {
    "compound": "[2H]C([2H])(C1CCOCC1)N1C[C@H]2C[C@H](Nc3ccc(-c4cc(F)c(S(C)(=N)=O)cc4F)nn3)C[C@H]2C1 (stereo partly shown)",
    "target": "Human M4 (Homo sapiens, UniProt P08173)",
    "value_units": "%",
    "Human M4 Emin": 4
  },
  {
    "compound": "[2H]C([2H])(C1CCOCC1)N1C[C@H]2C[C@H](Nc3ccc(-c4ccc(S(C)(=N)=O)c(C(F)(F)F)c4)nn3)C[C@H]2C1 (stereo partly shown)",
    "target": "Human M4 (Homo sapiens, UniProt P08173)",
    "value_units": "%",
    "Human M4 Emin": 3
  },
  {
    "compound": "[2H]C([2H])(C1CCOCC1)N1C[C@H]2C[C@H](Nc3ccc(-c4cc(F)c(S(C)(=O)=NC(C)=O)cc4F)nn3)C[C@H]2C1 (stereo partly shown)",
    "target": "Human M4 (Homo sapiens, UniProt P08173)",
    "value_units": "%",
    "Human M4 Emin": 6
  },
  {
    "compound": "CS(=N)(=O)c1cc(F)c(-c2ccc(N[C@H]3C[C@@H]4CN(CC5CCOCC5)C[C@@H]4C3)nn2)cc1F (stereo partly shown)",
    "target": "Human M4 (Homo sapiens, UniProt P08173)",
    "value_units": "%",
    "Human M4 Emin": 3
  },
  {
    "compound": "[2H]C([2H])(C1CCOCC1)N1C[C@H]2C[C@H](Nc3ccc(-c4ccc(S(C)(=N)=O)cc4F)nn3)C[C@H]2C1 (stereo partly shown)",
    "target": "Human M4 (Homo sapiens, UniProt P08173)",
    "value_units": "%",
    "Human M4 Emin": 3
  },
  {
    "compound": "CS(=N)(=O)c1cc(F)c(-c2ccc(N[C@H]3C[C@@H]4CN(CCC5CCOCC5)C[C@@H]4C3)nn2)cc1F (stereo partly shown)",
    "target": "Human M4 (Homo sapiens, UniProt P08173)",
    "value_units": "%",
    "Human M4 Emin": 3
  },
  {
    "compound": "[2H]C([2H])([2H])N=S(C)(=O)c1cc(F)c(-c2ccc(N[C@H]3C[C@@H]4CN(C([2H])([2H])C5CCOCC5)C[C@@H]4C3)nn2)cc1F (stereo partly shown)",
    "target": "Human M4 (Homo sapiens, UniProt P08173)",
    "value_units": "%",
    "Human M4 Emin": 3
  },
  {
    "compound": "[2H]C([2H])(C1CCOCC1)N1C[C@H]2C[C@H](Nc3ccc(-c4ccc(S(C)(=O)=NC(F)(F)F)cc4)nn3)C[C@H]2C1 (stereo partly shown)",
    "target": "Human M4 (Homo sapiens, UniProt P08173)",
    "value_units": "%",
    "Human M4 Emin": 2
  },
  {
    "compound": "[2H]C([2H])(C1CCOCC1)N1C[C@H]2C[C@H](Nc3ccc(-c4ccc(S(C)(=N)=O)cc4)nn3)C[C@H]2C1 (stereo partly shown)",
    "target": "Human M4 (Homo sapiens, UniProt P08173)",
    "value_units": "%",
    "Human M4 Emin": 2
  },
  {
    "compound": "[2H]C([2H])(C1CC(C)(C)OC(C)(C)C1)N1C[C@H]2C[C@H](Nc3ccc(-c4cc(F)c(S(C)(=N)=O)cc4F)nn3)C[C@H]2C1 (stereo partly shown)",
    "target": "Human M4 (Homo sapiens, UniProt P08173)",
    "value_units": "%",
    "Human M4 Emin": 3
  },
  {
    "compound": "CS(=N)(=O)c1cc(F)c(-c2ccc(N[C@H]3C[C@@H]4CN(Cc5ccccn5)C[C@@H]4C3)nn2)cc1F (stereo partly shown)",
    "target": "Human M4 (Homo sapiens, UniProt P08173)",
    "value_units": "%",
    "Human M4 Emin": 7
  },
  {
    "compound": "CS(=N)(=O)c1cc(F)c(-c2ccc(N[C@H]3C[C@@H]4CN(CC5CCCCC5)C[C@@H]4C3)nn2)cc1F (stereo partly shown)",
    "target": "Human M4 (Homo sapiens, UniProt P08173)",
    "value_units": "%",
    "Human M4 Emin": 2
  }
]
